I'd appreciate it if you could supply Dmax values for the items below.
STUDY_SYSTEM: B-RAF G466V (Homo sapiens, UniProt P15056, G466V)
Construct: expressed in transfected cells; host or cells: T-Rex 293 cells (Invitrogen #R71007)
Sequence (P15056 whole entry G466V): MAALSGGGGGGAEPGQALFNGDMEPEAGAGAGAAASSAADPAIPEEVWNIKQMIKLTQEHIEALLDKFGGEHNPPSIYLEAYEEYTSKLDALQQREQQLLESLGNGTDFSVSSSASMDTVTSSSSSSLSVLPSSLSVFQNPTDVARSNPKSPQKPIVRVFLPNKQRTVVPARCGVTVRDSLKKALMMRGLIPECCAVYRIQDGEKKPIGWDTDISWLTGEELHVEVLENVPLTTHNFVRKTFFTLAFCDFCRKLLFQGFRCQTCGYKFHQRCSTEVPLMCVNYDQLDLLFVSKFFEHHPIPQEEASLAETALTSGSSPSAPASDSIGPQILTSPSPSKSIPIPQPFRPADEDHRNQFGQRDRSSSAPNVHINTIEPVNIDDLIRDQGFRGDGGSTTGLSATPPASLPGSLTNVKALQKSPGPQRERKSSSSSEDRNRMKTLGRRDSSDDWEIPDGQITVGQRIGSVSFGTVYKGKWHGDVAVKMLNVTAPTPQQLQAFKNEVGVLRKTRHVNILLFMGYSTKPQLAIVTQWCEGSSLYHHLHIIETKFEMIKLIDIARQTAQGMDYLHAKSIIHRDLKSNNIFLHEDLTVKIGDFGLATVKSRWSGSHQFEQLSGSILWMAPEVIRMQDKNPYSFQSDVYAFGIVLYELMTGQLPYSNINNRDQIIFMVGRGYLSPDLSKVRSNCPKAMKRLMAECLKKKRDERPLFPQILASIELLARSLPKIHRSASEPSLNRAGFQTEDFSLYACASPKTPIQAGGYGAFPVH
ASSAY_TEXT: Target protein degradation, assay D: T-Rex 293 cells, HA-BRAF_G466V, 384 well format
Format: cell-based
SETTINGS: T-REx-293, Assay D, T-Rex 293 HA-BRAF_G466V cells, 24 hours, Examples 83-269
Protocol: D. T-Rex 293 Cells (384 Well Format) T-Rex 293 cells were purchased from Invitrogen (#R71007), and stably transfected with a pcDNA4/TO_HA-BRAF_G466V construct, using 400 ug Zeocin for selection. […] BRAF intensity is quantified in HCS Studio software (ThermoFisher), using a custom script, exported, analyzed using KNIME, and curve curation is performed in an ELN (Scilligence). Cell toxicity is measured via comparing number of nuclei in PROTAC treated wells to DMSO controls. […]

{"columns": ["COMPOUND", "Dmax"],
 "data": [
  ["N#Cc1c(NS(=O)(=O)N2CC[C@@H](F)C2)ccc(F)c1Oc1ccc2ncn(-c3ccc(N4CC(CN5CCN(C6CCN(c7ccc8c(c7)C(=O)N(C7CCC(=O)NC7=O)C8=O)CC6)CC5)C4)nc3)c(=O)c2c1 (stereo partly drawn)", "≤ 35%"],
  ["CN(c1ccc2c(c1)CN([C@H]1CCC(=O)NC1=O)C2=O)[C@H]1CC[C@H](N2CCN(c3ccc(-n4cnc5ccc(Oc6c(F)ccc(NS(=O)(=O)N7CC[C@@H](F)C7)c6C#N)cc5c4=O)cc3)CC2)CC1", "35 to 70%"],
  ["N#Cc1c(NS(=O)(=O)N2CC[C@@H](F)C2)ccc(F)c1Oc1ccc2ncn(-c3ccc(N4CCC(CN5CC6(CCN(c7ccc8c(c7)CN([C@H]7CCC(=O)NC7=O)C8=O)CC6)C5)C4)cc3)c(=O)c2c1 (stereo partly drawn)", "35 to 70%"],
  ["N#Cc1c(NS(=O)(=O)N2CC[C@@H](F)C2)ccc(F)c1Oc1ccc2ncn(-c3cccc(N4CCN(CC5CN(c6ccc7c(c6)CN([C@H]6CCC(=O)NC6=O)C7=O)C5)CC4)c3)c(=O)c2c1", "≥ 70%"],
  ["N#Cc1c(NS(=O)(=O)N2CC[C@@H](F)C2)ccc(F)c1Oc1ccc2ncn(-c3cccc(C4CCN(CC5CCN(c6ccc7c(c6)CN([C@H]6CCC(=O)NC6=O)C7=O)CC5)C4)c3)c(=O)c2c1 (single isomer, unassigned) [Example 257]", "35 to 70%"]
]}

List Dmax for every entry below, keeping the order given.
1. N#Cc1c(NS(=O)(=O)N2CC[C@@H](F)C2)ccc(F)c1Oc1ccc2ncn(-c3ccc(N4CCN(CCN5CCC(c6ccc7c(c6)CN(C6CCC(=O)NC6=O)C7=O)CC5)CC4)cc3)c(=O)c2c1 (stereo partly drawn)
2. N#Cc1c(NS(=O)(=O)N2CC[C@@H](F)C2)ccc(F)c1Oc1ccc2ncn(-c3ccc(N4CC(CC5CN(c6ccc7c(c6)C(=O)N(C6CCC(=O)NC6=O)C7=O)C5)C4)nc3)c(=O)c2c1 (stereo partly drawn)
3. N#Cc1c(NS(=O)(=O)N2CC[C@@H](F)C2)ccc(F)c1Oc1ccc2ncn(-c3ccc(N4CCC5(CC4)CN(CC4CCN(c6ccc7c(c6)CN([C@H]6CCC(=O)NC6=O)C7=O)CC4)C5)cc3)c(=O)c2c1
4. N#Cc1c(NS(=O)(=O)N2CC[C@@H](F)C2)ccc(F)c1Oc1ccc2ncn(-c3ccc(N4CCC5(CCN(CC6CCN(c7ccc8c(c7)C(=O)N(C7CCC(=O)NC7=O)C8=O)CC6)CC5)CC4)nc3)c(=O)c2c1 (stereo partly drawn)

Completion:
["35 to 70%", "≤ 35%", "35 to 70%", "35 to 70%"]
